test: Lipophilicity, logD of the compound at pH 7 by HPLC method; type: physicochemical; conditions: buffer
ASSAY METRIC: logD

Some molecules with recorded logD:
MOLECULE: COCc1cnc(N2CCC([C@H]3C[C@H]3COCc3ccc(-n4cnnn4)c(F)c3)CC2)nc1
logD: 3.7
--
MOLECULE: COC(C)c1cnc(N2CCC([C@H]3C[C@H]3COCc3ccc(S(C)(=O)=O)cc3F)CC2)nc1 (stereo in doubt; 30)
logD: 3.9
--
MOLECULE: COCc1cnc(N2CCC([C@H]3C[C@H]3COCc3ccc(S(C)(=O)=O)cc3F)CC2)nc1
logD: 3.5

Please give the measured logD for this molecule: O=S(=O)(CCO)c1ccc(COC[C@@H]2C[C@@H]2C2CCN(c3ncc(Cl)cn3)CC2)c(F)c1 4.8

Please give the measured logD for this molecule: CC1(OC(=O)N2CCC([C@H]3C[C@H]3COCc3ccc(-n4cnnn4)cc3F)CC2)CC1 3.8

Please give the measured logD for this molecule: COc1cnc(N2CCC([C@H]3C[C@H]3COCc3ccc(S(C)(=O)=O)cc3F)CC2)nc1 4

* * *

assay: Volume of distribution in Wistar Han rat at 0.5 mg/kg, iv LC-MS/MS method; assay type: ADME, organism-based; settings: Wistar Han, in vivo
ASSAY METRIC: Vd (L/kg)
Write the number in L/kg without appending the unit.

MOLECULE SMILES: CS(=O)(=O)c1ccc(COC[C@@H]2C[C@@H]2C2CCN(c3ncc(Cl)cn3)CC2)nc1
ASSAY METRIC: Vd
READING: 1.3

We next turn to a different compound, shown below.
Please give the measured Vd for this compound: COCc1cnc(N2CCC([C@H]3C[C@H]3COCc3ccc(S(C)(=O)=O)cc3F)CC2)nc1 2.2

* * *

test: Drug level in mouse blood at 1 mg/kg after 90 mins; format: ADME, organism-based; settings: whole blood, read-out: Drug uptake
ASSAY METRIC: concentration at 1.5 h (nM)
Write the number in nM without appending the unit.

Please give the measured concentration at 1.5 h for this compound: COCc1cnc(N2CCC([C@H]3C[C@H]3COCc3ccc(S(C)(=O)=O)cc3F)CC2)nc1 86

* * *

molecular target: UniProtKB P08684
Sequence (P08684 whole entry): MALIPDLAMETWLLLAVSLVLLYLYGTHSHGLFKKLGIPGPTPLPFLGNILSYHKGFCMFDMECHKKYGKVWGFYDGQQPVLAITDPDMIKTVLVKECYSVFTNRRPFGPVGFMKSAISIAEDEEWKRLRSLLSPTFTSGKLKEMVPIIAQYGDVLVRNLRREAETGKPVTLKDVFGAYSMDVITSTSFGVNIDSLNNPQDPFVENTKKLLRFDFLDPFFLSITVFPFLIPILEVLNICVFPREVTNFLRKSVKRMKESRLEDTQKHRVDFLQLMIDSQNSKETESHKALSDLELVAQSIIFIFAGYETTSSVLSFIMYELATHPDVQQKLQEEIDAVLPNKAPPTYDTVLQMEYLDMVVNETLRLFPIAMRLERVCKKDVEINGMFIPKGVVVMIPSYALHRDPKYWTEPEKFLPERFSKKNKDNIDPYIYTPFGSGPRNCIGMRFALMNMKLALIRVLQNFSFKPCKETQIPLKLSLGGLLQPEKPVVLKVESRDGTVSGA
ASSAY METRIC: IC50 (µM)
Write the number in µM without appending the unit.

Query the reported IC50 for UniProtKB P08684; item: COCc1cnc(N2CCC([C@H]3C[C@H]3COCc3ccc(S(C)(=O)=O)cc3F)CC2)nc1 40

* * *

Entries annotated with measured fraction unbound
test: Fraction unbound in rat plasma; assay type: ADME, cell-free
Form field (numeric): enter value without unit.

Some compounds with recorded fraction unbound:
MOLECULE SMILES: CCS(=O)(=O)c1ccc(OCC[C@@H]2C[C@@H]2C2CCN(c3nc(C(C)C)no3)CC2)c(F)c1
fraction unbound: 0.02
--
MOLECULE SMILES: COCc1cnc(N2CCC([C@H]3C[C@H]3COCc3ccc(S(C)(=O)=O)cc3F)CC2)nc1
fraction unbound: 0.041

Please give the measured fraction unbound for this compound: CS(=O)(=O)c1ccc(COC[C@@H]2C[C@@H]2C2CCN(c3ncc(Cl)cn3)CC2)nc1 0.016

Please give the measured fraction unbound for this compound: CCS(=O)(=O)c1ccc(COC[C@@H]2C[C@@H]2C2CCN(c3nc(C(C)C)no3)CC2)c(F)c1 0.058

Just for reference, ChEMBL document CHEMBL3621146 is where these values come from.
